Source: patent US20220259593A1

Consider the following molecules and their measured Mean relative activity readings.
Tested on: K562 CRISPRi cells
measurement.notes: Constant region variant library pooled growth screen, K562
Assay type: cell-based, human
reported.conditions: sgRNA constant region variants; activity relative to the original, un-modified constant region cr995
Give your answer as a number; write no unit.

- cr521 (nucleic acid, listed as DNA, chemistry not fully specified) guide: GTTTAAGAGCTAAGCTGGAAACAGCATAGCAAGTTTAAATAAGGCTGGTCCGTTATCAACTTGAAAAAGTGGCACCGTGTCGGTGCT: 0.8638

We now examine a further molecule.
Need Mean relative activity, item cr138 (nucleic acid, listed as DNA, chemistry not fully specified) guide: GTTTAAGAGCTAAGCTGGAAACAGCATAGCAAGCTTAAATAAGGCTAGTCCGTTATCAACTTGAAAAAGTGGCACGGAGTCCGTGCT 0.04307
